All values here come from ChEMBL document CHEMBL3046330.

test system: Pichia kudriavzevii; assay: Antifungal activity against Pichia kudriavzevii NRRL Y-7179 after 24 hr by NCCLS broth microdilution method; format: functional; conditions: NRRL Y-7179, 24 h

[
  {
    "molecule": "O=C(N/N=C/c1ccc(Br)s1)c1ccc(F)cc1",
    "censoring_sign": "=",
    "MIC / µg/mL": 250
  },
  {
    "molecule": "CC(=O)N1N=C(c2ccc(F)cc2)OC1c1ccc(Br)s1 (configuration not stated)",
    "censoring_sign": ">",
    "MIC / µg/mL": 1000
  },
  {
    "molecule": "CC(=O)N1N=C(c2ccc(F)cc2)OC1c1ccc(O)cc1 (configuration not stated)",
    "censoring_sign": "=",
    "MIC / µg/mL": 250
  },
  {
    "molecule": "O=C(N/N=C/c1ccco1)c1ccc(F)cc1",
    "censoring_sign": "=",
    "MIC / µg/mL": 500
  },
  {
    "molecule": "COc1ccc(/C=N/NC(=O)c2ccc(F)cc2)cc1O",
    "censoring_sign": "=",
    "MIC / µg/mL": 500
  },
  {
    "molecule": "CC(=O)N1N=C(c2ccc(F)cc2)OC1c1ccc(N(C)C)cc1 (configuration not stated)",
    "censoring_sign": "=",
    "MIC / µg/mL": 500
  },
  {
    "molecule": "O=C(N/N=C/c1ccccc1)c1ccc(F)cc1",
    "censoring_sign": "=",
    "MIC / µg/mL": 500
  },
  {
    "molecule": "COc1ccc(C2OC(c3ccc(F)cc3)=NN2C(C)=O)cc1O (configuration not stated)",
    "censoring_sign": "=",
    "MIC / µg/mL": 500
  },
  {
    "molecule": "CC(=O)N1N=C(c2ccc(F)cc2)OC1c1ccco1 (configuration not stated)",
    "censoring_sign": "=",
    "MIC / µg/mL": 500
  },
  {
    "molecule": "O=C(N/N=C/c1ccc(O)cc1)c1ccc(F)cc1",
    "censoring_sign": "=",
    "MIC / µg/mL": 500
  },
  {
    "molecule": "CC(=O)N1N=C(c2ccc(F)cc2)OC1c1ccc(F)cc1 (configuration not stated)",
    "censoring_sign": "=",
    "MIC / µg/mL": 500
  },
  {
    "molecule": "COc1ccc(C2OC(c3ccc(F)cc3)=NN2C(C)=O)cc1 (configuration not stated)",
    "censoring_sign": "=",
    "MIC / µg/mL": 500
  }
]

----------
assay: Inhibition of PMA-induced NFkappaB activity in Homo sapiens (human) SW1353 cells incubated for 30 min followed by PMA induction for 8 hr by luciferase reporter gene assay; type: cell-based

[
  {
    "compound": "COc1ccc(C2OC(c3ccc(F)cc3)=NN2C(C)=O)cc1O (stereo not given)",
    "IC50": "0.75 mg/L"
  },
  {
    "compound": "CC(=O)N1N=C(c2ccc(F)cc2)OC1c1ccc(O)cc1 (stereo not given)",
    "IC50": "5.5 mg/L"
  },
  {
    "compound": "O=C(N/N=C/c1ccccc1)c1ccc(F)cc1",
    "IC50": "2.8 mg/L"
  },
  {
    "compound": "O=C(N/N=C/c1ccc(F)cc1)c1ccc(F)cc1",
    "IC50": "15 mg/L"
  },
  {
    "compound": "C=C1C(=O)O[C@@H]2C3O[C@]3(C)CC/C=C(\\C)CC[C@@H]12 (stereo not given in full)",
    "IC50": "0.68 mg/L"
  }
]
